FYI, the data here is from PubChem BioAssay AID1159536.

# Tested on: Chlamydomonas reinhardtii, Nile Red lipid fluorescence, 72 h
# method_summary: compounds raising TAG storage in Chlamydomonas – qHTS, Chlamydomonas reinhardtii, dose response (AID 1159536)
Results filed as inconclusive are left out. Activity calls are given as the source filed them. How the calls were made is not given here.
API: response.call in active, inactive

// below: answered compounds
compound | label
Cc1cc(Br)ccc1OCCOCCN1CCOCC1 | active
COc1ccccc1N1CCN(C2CCN(Cc3cccc(Cl)c3)CC2)CC1 | active
Clc1ccc(OCCCN2CCOCC2)c(Br)c1 | active
Clc1cccc(N2CCN(Cc3ccsc3)CC2)c1 | active
CC(=O)N(C1=C(Nc2ccccc2)C(=O)c2ccccc2C1=O)c1ccccc1 | inactive

Turning to the following compound.
Given Cc1ccc(OCCCCN2CCCC2)cc1C , state the outcome it received in this test.
active
